These measurements were taken from patent US6919086B1.

Molecular target: IgE antibodies of the allergic patient serum pool We 6/97
Experiment: EAST inhibition, serum pool We 6/97
The binders listed here are annotated with their inhibition value (inhibitor concentration at 25% inhibition).
Measured metric: inhibition value (inhibitor concentration at 25% inhibition) (mol/L)

[
  {
    "Binder": "recombinant Phl p 5b (wild type) (protein) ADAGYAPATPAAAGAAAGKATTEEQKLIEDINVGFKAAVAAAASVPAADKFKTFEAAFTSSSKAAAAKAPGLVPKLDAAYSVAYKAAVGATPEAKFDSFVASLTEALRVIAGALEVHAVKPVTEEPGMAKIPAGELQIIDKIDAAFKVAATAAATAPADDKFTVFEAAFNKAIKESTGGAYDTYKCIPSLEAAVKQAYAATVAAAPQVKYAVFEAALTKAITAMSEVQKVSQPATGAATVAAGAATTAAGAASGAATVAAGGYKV",
    "Recorded measurement": "3e-10"
  },
  {
    "Binder": "rPhl p 5b deletion mutant DM1 (deletion K50-P132, D49L) (protein) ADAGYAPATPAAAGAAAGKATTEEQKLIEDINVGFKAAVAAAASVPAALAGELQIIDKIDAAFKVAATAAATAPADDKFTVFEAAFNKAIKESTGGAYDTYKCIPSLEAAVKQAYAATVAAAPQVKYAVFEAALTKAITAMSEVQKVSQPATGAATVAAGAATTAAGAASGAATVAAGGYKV",
    "Recorded measurement": "2.3e-08"
  }
]
